Experiment Description: AUClast in male C57BL/6 mouse at 2 mg/kg, iv measured up to 24 hrs by LC-MS/MS analysis
Assay type: ADME, organism-based
Condition Info: in vivo
Response key: criterion met means AUC(0-t) at 24 h >= 7000 ng·h/mL; criterion not met means AUC(0-t) at 24 h < 7000 ng·h/mL.

• Cn1c(=O)n(C2CCC(=O)NC2=O)c2cccc(C#CCO[C@H]3CC[C@H](CN4CCC5(CC4)Cc4cc(NC(=O)c6cnn7cc(F)cnc67)c(N6CCC(CO)CC6)cc4O5)CC3)c21 (stereo not given in full) = criterion met
• Cn1c(=O)n(C2CCC(=O)NC2=O)c2cccc(C#CCO[C@H]3CC[C@H](CN4CCC5(CC4)Cc4cc(NC(=O)c6cnc7cccnn67)c(N6CCC(CO)CC6)cc4O5)CC3)c21 (stereo not given in full) = criterion not met
• Cn1c(=O)n(C2CCC(=O)NC2=O)c2cccc(C#CCO[C@H]3CC[C@H](CN4CCC5(CC4)Cc4cc(NC(=O)c6cnn7cccnc67)c(N6CCC(O)CC6)cc4O5)CC3)c21 (stereo not given in full) = criterion met
• Cn1c(=O)n(C2CCC(=O)NC2=O)c2cccc(C#CCO[C@H]3CC[C@H](CN4CCC5(CC4)Cc4cc(NC(=O)c6coc7cccnc67)c(N6CCC(CO)CC6)cc4O5)CC3)c21 (stereo not given in full) = criterion met

###

Target Or Test System: Protein cereblon/Interleukin-1 receptor-associated kinase 4 (Homo sapiens, UniProt Q9NWZ3+Q96SW2)
Experiment Description: PROTAC activity at CRBN/IRAK4 in human THP-1 cells assessed as induction of IRAK4 degradation incubated for 24 hrs by HiBiT lytic reagent based analysis relative to control
Format: cell-based
Sequence (Q96SW2 whole entry, looked up): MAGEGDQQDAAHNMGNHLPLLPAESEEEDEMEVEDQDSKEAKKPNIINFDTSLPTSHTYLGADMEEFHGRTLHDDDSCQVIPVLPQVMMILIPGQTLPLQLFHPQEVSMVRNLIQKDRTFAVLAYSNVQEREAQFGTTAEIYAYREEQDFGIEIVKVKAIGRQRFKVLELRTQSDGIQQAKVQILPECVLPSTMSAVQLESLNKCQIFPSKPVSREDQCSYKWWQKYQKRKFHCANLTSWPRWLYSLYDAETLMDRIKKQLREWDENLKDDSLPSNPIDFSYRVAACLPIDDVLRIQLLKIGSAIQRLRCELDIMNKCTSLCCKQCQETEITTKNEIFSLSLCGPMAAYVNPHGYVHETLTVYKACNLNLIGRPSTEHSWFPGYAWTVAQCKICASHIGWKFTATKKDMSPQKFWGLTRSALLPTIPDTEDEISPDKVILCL
Sequence (Q9NWZ3 whole entry, looked up): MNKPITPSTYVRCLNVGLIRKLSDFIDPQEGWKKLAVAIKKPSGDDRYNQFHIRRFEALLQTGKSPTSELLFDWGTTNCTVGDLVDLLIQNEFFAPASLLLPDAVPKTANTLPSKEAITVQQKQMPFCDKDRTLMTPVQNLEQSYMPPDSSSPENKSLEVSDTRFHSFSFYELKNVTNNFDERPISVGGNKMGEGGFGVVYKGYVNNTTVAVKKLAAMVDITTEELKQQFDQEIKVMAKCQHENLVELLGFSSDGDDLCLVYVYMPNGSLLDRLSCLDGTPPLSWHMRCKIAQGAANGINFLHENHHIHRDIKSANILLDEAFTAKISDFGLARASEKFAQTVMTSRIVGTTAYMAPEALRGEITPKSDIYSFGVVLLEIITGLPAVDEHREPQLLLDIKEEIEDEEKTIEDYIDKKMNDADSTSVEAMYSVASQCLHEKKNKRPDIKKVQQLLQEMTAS
Listed here: items and their measured Emax.
Parameter: Emax (%)

- Cn1c(=O)n(C2CCC(=O)NC2=O)c2cccc(C#CCO[C@H]3CC[C@H](CN4CCC5(CC4)Cc4cc(NC(=O)c6cnn7cc(Cl)cnc67)c(N6CCC(CO)CC6)cc4O5)CC3)c21 (stereo partly specified): 87
- Cn1c(=O)n(C2CCC(=O)NC2=O)c2cccc(C#CCO[C@H]3CC[C@](F)(CN4CCC5(CC4)Cc4cc(NC(=O)c6cnn7cccnc67)c(N6CCC(CO)CC6)cc4O5)CC3)c21 (stereo partly specified): 88
- Cn1c(=O)n(C2CCC(=O)NC2=O)c2cccc(C#CCO[C@H]3CC[C@H](CN4CCC5(CC4)Cc4cc(NC(=O)c6cnn7cc(CO)cnc67)c(N6CCC(CO)CC6)cc4O5)CC3)c21 (stereo partly specified): 90
- Cn1c(=O)n(C2CCC(=O)NC2=O)c2cccc(C#CCO[C@H]3CC[C@H](CN4CCC5(CC4)Cc4cc(NC(=O)c6coc7cccnc67)c(N6CCC(CO)CC6)cc4O5)CC3)c21 (stereo partly specified): 94
- CN(CCO)c1cc2c(cc1NC(=O)c1cnn3cccnc13)CC1(CCN(C[C@H]3CC[C@H](OCC#Cc4cccc5c4n(C)c(=O)n5C4CCC(=O)NC4=O)CC3)CC1)O2 (stereo partly specified): 44
- Cn1c(=O)n(C2CCC(=O)NC2=O)c2cccc(C#CCO[C@H]3CC[C@H](CN4CCC5(CC4)Oc4cc(NC(=O)c6cnn7cccnc67)c(N6CCC(CO)CC6)cc4O5)CC3)c21 (stereo partly specified): 78
- Cn1c(=O)n(C2CCC(=O)NC2=O)c2cccc(C#CCO[C@H]3CC[C@H](CN4CCC5(CC4)Cc4cc(NC(=O)c6cnn7cccnc67)c(OCCC(C)(C)O)cc4O5)CC3)c21 (stereo partly specified): 49
- Cn1c(=O)n(C2CCC(=O)NC2=O)c2cccc(C#CCO[C@H]3CC[C@@H](CN4CCC5(CC4)Cc4cc(NC(=O)c6cnn7cccnc67)c(N6CCC(CO)CC6)cc4O5)CC3)c21 (stereo partly specified): 89
- COCC1CCN(c2cc3c(cc2NC(=O)c2cnn4cccnc24)CC2(CCN(C[C@H]4CC[C@H](OCC#Cc5cccc6c5n(C)c(=O)n6C5CCC(=O)NC5=O)CC4)CC2)O3)CC1 (stereo partly specified): 62
- CN(CCCO)c1cc2c(cc1NC(=O)c1cnn3cccnc13)CC1(CCN(C[C@H]3CC[C@H](OCC#Cc4cccc5c4n(C)c(=O)n5C4CCC(=O)NC4=O)CC3)CC1)O2 (stereo partly specified): 68
- Cn1c(=O)n(C2CCC(=O)NC2=O)c2cccc(C#CCO[C@H]3CC[C@H](CN4CCC5(CC4)Cc4cc(NC(=O)c6cnn7cccnc67)c(N6CCC(CO)CC6)cc4C5)CC3)c21 (stereo partly specified): 78

###

Target Or Test System: Protein cereblon/Interleukin-1 receptor-associated kinase 4 (Homo sapiens, UniProt Q9NWZ3+Q96SW2)
Experiment Description: PROTAC activity at CRBN/IRAK4 in human THP-1 cells assessed as induction of IRAK4 degradation incubated for 24 hrs by HiBiT lytic reagent based analysis
Format: cell-based
Sequence (Q9NWZ3 whole entry): as the sequence (Q9NWZ3 whole entry, looked up) above
Sequence (Q96SW2 whole entry): as the sequence (Q96SW2 whole entry, looked up) above
Parameter: DC50 (nM)

- Cn1c(=O)n(C2CCC(=O)NC2=O)c2cccc(C#CCO[C@H]3CC[C@@H](CN4CCC5(CC4)Cc4cc(NC(=O)c6coc7cccnc67)c(N6CCC(CO)CC6)cc4O5)CC3)c21 (stereo partly specified): 3.69
- Cn1c(=O)n(C2CCC(=O)NC2=O)c2cccc(C#CCOC3CCN(CC(=O)N4CCC5(CC4)Cc4cc(NC(=O)c6cnn7cccnc67)c(N6CCC(CO)CC6)cc4O5)CC3)c21 (stereo unspecified): 2.18
- Cn1c(=O)n(C2CCC(=O)NC2=O)c2cccc(C#CCO[C@H]3CC[C@H](CN4CCC5(CC4)Cc4cc(NC(=O)c6cnn7cccnc67)c(N6CCC(F)CC6)cc4O5)CC3)c21 (stereo partly specified): 6.38
- Cn1c(=O)n(C2CCC(=O)NC2=O)c2cccc(C#CCO[C@H]3CC[C@H](CN4CCC5(CCc6cc(NC(=O)c7cnn8cccnc78)c(N7CCC(CO)CC7)cc6O5)CC4)CC3)c21 (stereo partly specified): 8.48
- Cn1c(=O)n(C2CCC(=O)NC2=O)c2cccc(C#CCN3CCN(CC(=O)N4CCC5(CC4)Cc4cc(NC(=O)c6cnn7cccnc67)c(N6CCC(CO)CC6)cc4O5)CC3)c21 (stereo unspecified): 2.76
- Cn1c(=O)n(C2CCC(=O)NC2=O)c2cccc(C#CCO[C@H]3CC[C@H](CN4CCC5(CC4)Cc4cc(NC(=O)c6cnn7cc(CO)cnc67)c(N6CCC(CO)CC6)cc4O5)CC3)c21 (stereo partly specified): 3.32
- Cn1c(=O)n(C2CCC(=O)NC2=O)c2cccc(C#CCOC3CCN(C(=O)CN4CCC5(CC4)Cc4cc(NC(=O)c6cnn7cccnc67)c(N6CCC(CO)CC6)cc4O5)CC3)c21 (stereo unspecified): 1.92
- Cn1c(=O)n(C2CCC(=O)NC2=O)c2cccc(CN3CC4(CCN(CCN5CCC6(CC5)Cc5cc(NC(=O)c7cnn8cccnc78)c(N7CCC(CO)CC7)cc5O6)CC4)C3)c21 (stereo unspecified): 1.66
- Cn1c(=O)n(C2CCC(=O)NC2=O)c2cccc(C#CCO[C@H]3CC[C@H](CN4CCC5(CC4)Oc4cc(NC(=O)c6cnn7cccnc67)c(N6CCC(CO)CC6)cc4O5)CC3)c21 (stereo partly specified): 10.4
- Cc1cc(-c2nc(C(=O)Nc3cc4c(cc3N3CCC(CO)CC3)OC3(CCN(C[C@H]5CC[C@H](OCC#Cc6cccc7c6n(C)c(=O)n7C6CCC(=O)NC6=O)CC5)CC3)C4)co2)ccn1 (stereo partly specified): 6.02
- Cn1c(=O)n(C2CCC(=O)NC2=O)c2cccc(C#CCO[C@H]3CC[C@H](CN4CCC5(CC4)Cc4cc(NC(=O)c6coc7cccnc67)c(N6CCC(CO)CC6)cc4O5)CC3)c21 (stereo partly specified): 4.01

###

Experiment Description: Clearance in Sprague-Dawley rat at 2 mg/kg, iv measured up to 24 hrs by LC-MS/MS analysis
Type: ADME, organism-based
Condition Info: in vivo
Listed here: items and their measured clearance.
Parameter: clearance (mL/min/kg)

- Cn1c(=O)n(C2CCC(=O)NC2=O)c2cccc(C#CCO[C@H]3CC[C@H](CN4CCC5(CC4)Cc4cc(NC(=O)c6cnn7cc(F)cnc67)c(N6CCC(CO)CC6)cc4O5)CC3)c21 (stereo partly drawn): 12.4
- Cn1c(=O)n(C2CCC(=O)NC2=O)c2cccc(C#CCO[C@H]3CC[C@H](CN4CCC5(CC4)Cc4cc(NC(=O)c6cnn7cccnc67)c(N6CCC(O)CC6)cc4O5)CC3)c21 (stereo partly drawn): 21.4
- Cn1c(=O)n(C2CCC(=O)NC2=O)c2cccc(C#CCO[C@H]3CC[C@H](CN4CCC5(CC4)Cc4cc(NC(=O)c6cnn7cccnc67)c(N6CCC(CO)CC6)cc4O5)CC3)c21 (stereo partly drawn): 15.1

###

Experiment Description: Metabolic stability in dog liver microsome assessed as half life at 1 uM measured up to 60 mins in presence of NADPH by LC-MS/MS analysis
Type: ADME, Canis lupus familiaris
Condition Info: liver microsomes
Parameter: half-life at 1 µM

* Cn1c(=O)n(C2CCC(=O)NC2=O)c2cccc(C#CCO[C@H]3CC[C@@H](CN4CCC5(CC4)Cc4cc(NC(=O)c6coc7cccnc67)c(N6CCC(CO)CC6)cc4O5)CC3)c21 (stereo partly specified) | 0.967 h
* Cn1c(=O)n(C2CCC(=O)NC2=O)c2cccc(C#CCO[C@H]3CC[C@H](C(=O)N4CCC5(CC4)Cc4cc(NC(=O)c6cnn7cccnc67)c(N6CCC(CO)CC6)cc4O5)CC3)c21 (stereo partly specified) | > 3.07 h
* Cn1c(=O)n(C2CCC(=O)NC2=O)c2cccc(CN3CCC4(CC3)CN(CCN3CCC5(CC3)Cc3cc(NC(=O)c6cnn7cccnc67)c(N6CCC(CO)CC6)cc3O5)C4)c21 (stereo unspecified) | > 3.07 h
* Cn1c(=O)n(C2CCC(=O)NC2=O)c2cccc(C#CCO[C@H]3CC[C@H](CN4CCC5(Cc6cc(NC(=O)c7cnn8cccnc78)c(N7CCC(CO)CC7)cc6O5)C4)CC3)c21 (stereo partly specified) | > 3.07 h
* Cc1cnc2c(C(=O)Nc3cc4c(cc3N3CCC(CO)CC3)OC3(CCN(C[C@H]5CC[C@H](OCC#Cc6cccc7c6n(C)c(=O)n7C6CCC(=O)NC6=O)CC5)CC3)C4)cnn2c1 (stereo partly specified) | > 3.07 h
* Cn1c(=O)n(C2CCC(=O)NC2=O)c2cccc(C#CCOC3CCN(CCN4CCC5(CC4)Cc4cc(NC(=O)c6cnn7cccnc67)c(N6CCC(CO)CC6)cc4O5)CC3)c21 (stereo unspecified) | 1.47 h
* Cn1c(=O)n(C2CCC(=O)NC2=O)c2cccc(C#CCO[C@H]3CC[C@@](F)(CN4CCC5(CC4)Cc4cc(NC(=O)c6cnn7cccnc67)c(N6CCC(CO)CC6)cc4O5)CC3)c21 (stereo partly specified) | 0.0167 h
* Cn1c(=O)n(C2CCC(=O)NC2=O)c2cccc(C#CCO[C@H]3CC[C@H](CN4CCC5(CC4)Cc4cc(NC(=O)c6cnn7cc(C#N)cnc67)c(N6CCC(CO)CC6)cc4O5)CC3)c21 (stereo partly specified) | > 3.07 h
* Cn1c(=O)n(C2CCC(=O)NC2=O)c2cccc(C#CCOC3CCN(CC(=O)N4CCC5(CC4)Cc4cc(NC(=O)c6cnn7cccnc67)c(N6CCC(CO)CC6)cc4O5)CC3)c21 (stereo unspecified) | 0.2 h
* Cc1cc(-c2nc(C(=O)Nc3cc4c(cc3N3CCC(CO)CC3)OC3(CCN(C[C@H]5CC[C@H](OCC#Cc6cccc7c6n(C)c(=O)n7C6CCC(=O)NC6=O)CC5)CC3)C4)co2)ccn1 (stereo partly specified) | > 3.07 h
* Cn1c(=O)n(C2CCC(=O)NC2=O)c2cccc(C#CCO[C@H]3CC[C@H](CN4CCC5(CC4)Cc4cc(NC(=O)c6cnn7cccnc67)c(N6CCC(C(=O)O)CC6)cc4O5)CC3)c21 (stereo partly specified) | > 3.07 h

Sourced from ChEMBL document CHEMBL6182949
